tested on: SK-MEL-28 melanoma; assay: NCI tumour cell line growth inhibition, 48 h
// values below are reported TGI

Short answer please: TGI, SK-MEL-28 melanoma, entry O=C1C2C(C(=O)N1OS(=O)(=O)c1ccccc1)N(Cc1ccccc1)C(=O)N2Cc1ccccc1 (stereo unspecified)
> 100 µM

Look up TGI with SK-MEL-28 melanoma for this compound: CC12CCC(O)CC1CCC1C2CCC2(C)C(C3=CC(=O)OC3)CCC12O (stereo unspecified)
33.7 µM

Write down the reported TGI of `CC(=O)NC1=C(NCCC(C)C)C(=O)c2ccccc2C1=O` , test system: SK-MEL-28 melanoma.
> 50 µM
